system: Mycolicibacterium smegmatis; experiment: Antimycobacterial activity against Mycobacterium smegmatis str. MC2 155 ATCC 700084 assessed as inhibition of mycobacterial growth incubated for 24 hrs by MABA method; format: functional; conditions: MC2 155 ATCC 700084, 24 h
Rule: MIC below 20 µg/mL gives true (1). Equal to or above 20 µg/mL gives false (0).

Solved cases (2 shown):
molecule=Cc1cc(CN2CCN(C3CCCCC3)CC2)c(C)n1-c1ccc(Cl)cc1 label_class="false (0)"
molecule=Cc1cc(CNCc2ccc(F)cc2)c(C)n1-c1ccc(Cl)cc1 label_class="true (1)"

Exam item: Please check: MIC for `Cc1cc(CNOCc2ccccc2)c(C)n1-c1ccc(Cl)cc1` , strictly under 20 µg/mL or not?
Marked response: false (0)

Exam item: Next molecule up: Cc1cc(CN2CCN(C3C4CC5CC(C4)CC3C5)CC2)c(C)n1-c1ccc(Cl)cc1 (stereo unspecified)
Marked response: true (1)

Exam item: Next molecule up: `Cc1cc(CNCCc2ccccc2)c(C)n1-c1ccc(Cl)cc1`
Marked response: false (0)

Exam item: Next molecule up: Cc1cc(CNC2C3CC4CC(C3)CC2C4)c(C)n1-c1ccc(Cl)cc1 (stereo unspecified)
Marked response: true (1)
